Where these numbers come from: patent US11926619B2

biological target: SF3b complexes (Homo sapiens, UniProt O75533+Q7RTV0); construct: endogenous in cells; assay: Scintillation proximity assay (SPA) with [3H]-labelled pladienolide probe; details: wt SF3B1, read-out: SPA (wt SF3B1 cells) IC50
metric: log10 IC50 (log10 of the value in nM)

INSERT INTO measurements (molecule, metric, quantitative_readout) VALUES
  ('C\C(=C/C=C/C=C/[C@@H](C)c1ccccn1)C1OC(=O)C[C@H](O)CC[C@@](C)(O)[C@@H](OC(=O)N2CCN(C3CCCCCC3)CC2)/C=C/[C@@H]1C (some centres unmarked)', 'log10 IC50', 2.08),
  ('C/C(=C\C=C\[C@H](C)c1nccc(C)n1)[C@H]1OC(=O)C[C@H](O)CC[C@@](C)(O)[C@@H](OC(=O)N2CCN(C3CCCCCC3)CC2)/C=C/[C@@H]1C', 'log10 IC50', 0.99),
  ('C/C(=C\C=C\[C@H](C)c1cccnc1)[C@H]1OC(=O)C[C@H](O)CC[C@@](C)(O)[C@@H](OC(=O)N2CCN(C3CCCCCC3)CC2)/C=C/[C@@H]1C', 'log10 IC50', 0.41),
  ('C/C(=C\C=C\C(C)c1cccc(N2CCCC2)n1)[C@H]1OC(=O)C[C@H](O)CC[C@@](C)(O)[C@@H](OC(=O)N2CCN(C3CCCCCC3)CC2)/C=C/[C@@H]1C (some centres unmarked)', 'log10 IC50', 1.34),
  ('CC[C@H](OC(C)=O)[C@@H](C)[C@H]1O[C@@H]1C[C@@](C)(O)/C=C/C=C(\C)[C@H]1OC(=O)C[C@H](O)CC[C@@](C)(O)[C@@H](OC(=O)N2CCN(C3CCCCCC3)CC2)/C=C/[C@@H]1C', 'log10 IC50', 0.77),
  ('C/C(=C\C=C\C(C)c1cccnc1)[C@H]1OC(=O)C[C@H](O)CC[C@@](C)(O)[C@@H](OC(=O)N2CCN(C3CCCCCC3)CC2)/C=C/[C@@H]1C (some centres unmarked)', 'log10 IC50', 0.40),
  ('C/C(=C\C=C\C(C)c1ncccn1)[C@H]1OC(=O)C[C@H](O)CC[C@@](C)(O)[C@@H](OC(=O)N2CCN(C)CC2)/C=C/[C@@H]1C (some centres unmarked)', 'log10 IC50', 1.58),
  ('CC[C@H](O)[C@@H](C)[C@H]1O[C@@H]1C[C@H](C)/C=C/C=C(\C)[C@H]1OC(=O)C[C@H](O)CC[C@@](C)(OC(=O)N2CCNCC2)[C@@H](OC(C)=O)/C=C/[C@@H]1C', 'log10 IC50', 0.32),
  ('CC[C@H](O)[C@@H](C)[C@H]1O[C@@H]1C[C@@](C)(O)/C=C/C=C(\C)[C@H]1OC(=O)C[C@H](O)CC[C@@](C)(OC(C)=O)[C@@H](OC(=O)N2C[C@@H]3C[C@H]2CN3)/C=C/[C@@H]1C', 'log10 IC50', 1.20),
  ('C/C(=C\C=C\[C@@H](C)c1ccccn1)[C@H]1OC(=O)C[C@H](O)CC[C@@](C)(O)[C@@H](OC(=O)N2CCC(N3CC4CCC(C3)C4(F)F)CC2)/C=C/[C@@H]1C', 'log10 IC50', 1.67),
  ('CC(=O)O[C@H]1/C=C/[C@H](C)[C@@H](/C(C)=C/C=C/[C@@H](C)COC(=O)N(C)C(C)C)OC(=O)C[C@H](O)CC[C@@]1(C)O', 'log10 IC50', 0.69);
